# TEST_PROTOCOL: binders from COS7 lysate, DM2A8 probe, primary screen, torsin A project, cell lysate, small-molecule microarray, fluorescence 635/667 (AID 1065)
# TEST_CONTEXT: higher = more signal, COS7 lysate expressing mutant human TOR1A
Please enter Condition met where composite z-score is greater than or equal to 0.3, and Condition not met where it is lower.

Query: # bool: composite z-score of COc1ccc([Si](C)(C)[C@@H]2[C@@H](CC(=O)N(CCO)Cc3ccccc3)O[C@]3(C(=O)N(C)c4ccccc43)[C@H]2C)cc1 >= 0.3
Result: Condition not met

Query: Continue with Cc1ccc(S[C@]2(C(=O)NCc3ccccc3)CC(=O)N(Cc3ccccc3Cl)[C@@H]2c2ccc(CO)cc2I)cc1
Result: Condition not met

Query: Continue with COc1ccc(CCNC(=O)[C@@]2(Sc3ccc(C)cc3)CC(=O)N(Cc3ccccc3Cl)[C@@H]2c2ccc(CO)cc2I)cc1
Result: Condition not met

Query: Continue with C=CCC(OC(C)=O)[C@@H]1[C@@H](N(Cc2ccc(-c3ccccc3)cc2)C(=O)Cc2ccc(F)cc2)c2cc(OCCCO)ccc2N1C(=O)c1ccc2ccccc2n1 (some centres not stated)
Result: Condition not met

Query: Continue with COc1cc(C(O)C2C=CC3C(=O)N(c4ccccc4)C(=O)C3N2Nc2ccc(C#N)cc2)cc(OC)c1OC (configuration not stated)
Result: Condition not met

Query: Continue with O=C1O[C@H](c2ccccc2)[C@H](c2ccccc2)N2[C@H]1[C@@H](C(=O)N1CCN(c3ncccn3)CC1)[C@]1(C(=O)Nc3ccccc31)[C@H]2c1ccc(OCCO)cc1
Result: Condition not met

Query: Continue with O=C1C=CC(=O)[C@@H]2CC(COc3ccccc3)=C3[C@@H](CCc4ccccc4)OB(O)C[C@@H]3[C@H]12
Result: Condition met

Query: Continue with C[C@]1(C(=O)NCc2ccccc2)c2ccccc2C(=O)N(Cc2cc(F)cc(C(F)(F)F)c2)[C@H]1c1ccc(CO)cc1
Result: Condition not met

Query: Continue with COCCOC(=O)N1C(=O)[C@@]2(c3cc(C#CCCO)ccc31)[C@H](c1ccc(O)cc1)N1[C@H](c3ccccc3)[C@H](c3ccccc3)OC(=O)[C@H]1[C@@H]2C(N)=O
Result: Condition met

Query: Continue with COc1ccc(C#Cc2ccc3c(c2)[C@]2(C(=O)N3)[C@H](c3ccc(O)cc3)N3[C@H](c4ccccc4)[C@H](c4ccccc4)OC(=O)[C@H]3[C@@H]2C(=O)N2CCCCCCC2)cc1
Result: Condition met

Query: Continue with CCCCCN1CC=CC23O[C@@H]4C=CCOC(=O)[C@@H]4[C@H]2C(=O)N(CCCO)[C@@H]3C1=O (some centres not stated)
Result: Condition met

Query: Continue with COc1ccc(C#Cc2ccc3c(c2)[C@]2(C(=O)N3)[C@H](C(=O)NC[C@H](O)c3ccccc3)[C@H]3C(=O)O[C@H](c4ccccc4)[C@H](c4ccccc4)N3[C@@H]2c2ccccc2OCCO)cc1
Result: Condition met

Query: Continue with CC(C)CNC(=O)[C@@H]1c2ccccc2C(=O)N(Cc2cc(C(F)(F)F)cc(C(F)(F)F)c2)[C@H]1c1ccc(CO)cc1
Result: Condition not met

Query: Continue with CC(C)N1CC=CC23O[C@@H]4C=CCOC(=O)[C@@H]4[C@H]2C(=O)N(CCO)[C@@H]3C1=O (some centres not stated)
Result: Condition not met

Query: Continue with C=C[C@@H](COC(C)=O)N(Cc1ccccc1[N+](=O)[O-])S(=O)(=O)c1ccc(Br)cc1
Result: Condition met

Query: Continue with CCC(CC)C(O)C1C=CC2C(=O)N(c3ccccc3)C(=O)C2N1Nc1ccc(C#N)cc1 (configuration not stated)
Result: Condition met

Query: Continue with COCCOC(=O)N1C(=O)[C@@]2(c3cc(C#CCCO)ccc31)[C@H](c1ccccc1OCCO)N1[C@H](c3ccccc3)[C@H](c3ccccc3)OC(=O)[C@H]1[C@@H]2C(=O)N1CCN(c2ncccn2)CC1
Result: Condition not met

Query: Continue with [N-]=[N+]=Nc1ccccc1C[C@]1(C(=O)NCCN2CCOCC2)N=C(c2ccc(OCCCO)cc2)O[C@H]1c1ccccc1
Result: Condition met

Query: Continue with C=CCOC(=O)[C@H]1[C@@H]2C(=O)O[C@@H](c3ccccc3)[C@@H](c3ccccc3)N2[C@@H](c2ccc(OCCOC(=O)[C@@H]3C[C@@H]4C(=O)N5CCC[C@H]5C(=O)N4[C@@H]3c3ccc(O)cc3)cc2)[C@]12C(=O)Nc1ccccc12
Result: Condition met

Query: Continue with CC(C)C[C@@H]1NC(=O)[C@H]2C[C@@H](C(=O)NCCCCCNC(=O)CS)[C@@H](c3cccc(OCCO)c3)N2C1=O
Result: Condition not met

Query: Continue with CCOC(=O)C[C@H]1[C@H](OC(=O)c2ccc(C(=O)c3ccccc3)cc2)[C@@H](NC(=O)C2CCCCC2)c2cc(OCCCO)ccc2N1C(=O)c1ccccc1
Result: Condition not met

Query: Continue with COC(=O)[C@@]1(Cc2ccc(OC)cc2)[C@H]2c3cc(C(=O)N4CCCC4)n(Cc4cc(F)cc5c4OCOC5)c3C[C@H]2CN1C(=O)c1ccccc1
Result: Condition not met

---

# TARGET_OF_ASSAY: Calmodulin-1 (Homo sapiens) (UniProt P0DP23)
# TEST_PROTOCOL: CALM1 binders on microarrays, EGTA buffer, profiling panel, biochemical, small-molecule microarray, Cy5-labelled CALM1 (AID 1111);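 note: labelled calmodulin applied in Tris saline Tween buffer holding calcium plus EGTA and DTT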
# TEST_CONTEXT: Cy5-CALM1 binding fluorescence, higher = more signal
Please enter Y where composite z-score is greater than or equal to 0.9, and N where it is lower.

Query: # bool: composite z-score of COc1ccc(C(O)C2C=CC3C(=O)N(C)C(=O)C3N2Nc2ccccc2)cc1OCc1ccccc1 (stereo not drawn) >= 0.9
Result: Y

Query: Continue with CCOC(=O)C1=CCC(c2ccc(C#N)cc2)N(S(=O)(=O)c2ccc(C)cc2)C1 (stereo not drawn)
Result: Y

Query: Continue with C=C(CCCC)C(=O)CC[C@H](OC(=O)c1cccnc1)c1cccc(OCCO)c1
Result: N

Query: Continue with CCC[C@@H]1C=C(C(=O)O)[C@H](c2ccc(C)cc2)N1S(=O)(=O)c1ccc(C)cc1
Result: N

Query: Continue with COC(=O)[C@@]1(Cc2ccccc2)[C@H]2c3cc(C(=O)N(C)C)n(Cc4c(-c5ccccc5)noc4C)c3C[C@H]2CN1C(=O)c1ccccc1
Result: Y

Query: Continue with CS(=O)(=O)CCOC(=O)C1=CC(CCCO)=CC(c2cccs2)N(Cc2cc3c(cc2Br)OCO3)C=C1C(=O)OCCS(C)(=O)=O (stereo not drawn)
Result: Y

Query: Continue with COc1ccc([Si](C)(C)[C@@H]2[C@@H](CC(=O)N(CCO)Cc3ccccc3)O[C@]3(C(=O)N(C)c4ccccc43)[C@H]2C)cc1
Result: N

Query: Continue with COC(=O)C[C@H]1O[C@]2(C(=O)N(Cc3ccccc3)c3ccc(NC(C)=O)cc32)[C@@H](C)[C@@H]1[Si](C)(C)c1ccc(OC)cc1
Result: N

Query: Continue with CC(C)c1ccc(NN2C(C(O)c3ccc(N(C)C)cc3)C=CC3C(=O)N(c4ccccc4)C(=O)C32)cc1 (stereo not drawn)
Result: Y

Query: Continue with COC(=O)[C@@]1(Cc2ccccc2)N=C(c2ccc(OCCCO)cc2)O[C@H]1c1ccccc1N=[N+]=[N-]
Result: N

Query: Continue with COCCOC(=O)N1C(=O)[C@@]2(c3cc(C#CCCO)ccc31)[C@H](C(=O)NC[C@H](O)c1ccccc1)[C@H]1C(=O)O[C@H](c3ccccc3)[C@H](c3ccccc3)N1[C@@H]2c1ccc(O)cc1
Result: N

Query: Continue with CCN(CC)c1ccc(N2CC=CC34O[C@@H]5C=CCCOC(=O)C5[C@H]3C(=O)N(CCCCCO)[C@@H]4C2=O)cc1 (stereo partly drawn)
Result: N

Query: Continue with CCCCCCc1nc(CCCc2cc3c(c(CCCCCC)n2)[Si](C(C)C)(C(C)C)OC3)cc2c1[Si](C(C)C)(C(C)C)OC2
Result: N

Query: Continue with CC(C)N1C(=O)[C@@]2(c3ccc([N+](=O)[O-])cc3)CC(=O)N(CC34CC5CC(CC(C5)C3)C4)[C@@H]2c2ccc(CO)cc21
Result: N

Query: Continue with CC(C)(C)N1CC=CC23O[C@@H]4C=CCOC(=O)[C@@H]4[C@H]2C(=O)N(CCCCCO)[C@@H]3C1=O (stereo partly drawn)
Result: N

Query: Continue with CCCCC(O)C1C=CC2C(=O)N(C3CCCCC3)C(=O)C2N1Nc1ccc(OC)cc1 (stereo not drawn)
Result: Y

Query: Continue with COc1ccc(C#Cc2ccc3c(c2)[C@]2(C(=O)N3)[C@H](c3ccc(O)cc3)N3[C@H](c4ccccc4)[C@H](c4ccccc4)OC(=O)[C@H]3[C@@H]2C(=O)N2CCCCCCC2)cc1
Result: Y

---

# Tested on: Fibrinogen (Alexa647-labelled)
# TEST_PROTOCOL: fibrinogen binders on compound microarrays, profiling panel, artefact control for SMM control-protein annotation, biochemical, small-molecule microarray, 635/667 nm fluorescence (AID 1131);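 note: z-score merges 667 nm fluorescence with per-spot signal-to-noise over triplicate slides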
# TEST_CONTEXT: fibrinogen-A647 binding fluorescence, higher = more signal
Exercise: state measured composite z-score for each of the compounds provided.
// response body must contain only the number

Query: Entry CC(C)(C)OC(=O)CC[C@@]1(C(=O)O)N=C(c2ccc(OCCCO)cc2)O[C@@H]1c1ccccc1N=[N+]=[N-] : reported composite z-score = ?
Result: 0.482

Query: Continue with COc1cc2c(cc1O)C(C)N(Cc1cccc(OC(F)(F)F)c1)CC2 (configuration not stated)
Result: 0.966

Query: Continue with CC(C)C(=C=CC[C@@H](O)c1ccccc1OCCO)C[C@@H](O)c1ccccn1
Result: 0.694

Query: Continue with COCCOC(=O)N1C(=O)[C@@]2(c3ccccc31)[C@H](c1ccc(O)cc1)N1[C@H](c3ccccc3)[C@H](c3ccccc3)OC(=O)[C@H]1[C@@H]2C(=O)N1CCc2cc(OC)c(OC)cc2C1
Result: 0.107

Query: Continue with CN(C)CCCCCCNC(=O)[C@H]1C[C@H]2C(=O)N[C@@H](CCCCN)C(=O)N2[C@H]1c1ccc(O)cc1
Result: 0.953

Query: Continue with COC(=O)[C@@]1(Cc2ccccc2)[C@H]2c3cc(C(=O)N4CCCC4)n(C)c3C[C@H]2CN1C(=O)c1ccccc1
Result: 1.03

Query: Continue with COCCOC(=O)N1C(=O)[C@@]2(c3cc(C#CC4=CCCCC4)ccc31)[C@H](C(=O)NC[C@H](O)c1ccccc1)[C@H]1C(=O)O[C@H](c3ccccc3)[C@H](c3ccccc3)N1[C@@H]2c1ccc(O)cc1
Result: 0.86
